Value source: paper PMC4623676

- System: PsAOMT
- Construct: gene AOMT; dimer in solution; Leu-87; differs from PtAOMT at positions 13 (E), 85 (A), 87 (L), 205 (R)
- protocol_notes: HPLC of methylated product
- Format: biochemical, Paeonia suffruticosa
- test_context: 200 μM SAM, 1.0 mM MgCl2, 14 mM β-mercaptoethanol, 100 mM Tris/HCl pH 7.5, 35 °C; MBP fusion; read-out: PsAOMT / K m
endpoint: Km (µM)

P. OC[C@H]1O[C@@H](Oc2cc3c(O)cc(O)cc3[o+]c2-c2ccc(O)c(O)c2)[C@H](O)[C@@H](O)[C@@H]1O [Cy3G, Cyanidin 3-O-glucoside]
Q. OC[C@H]1O[C@@H](Oc2cc3c(O)cc(O)cc3[o+]c2-c2cc(O)c(O)c(O)c2)[C@H](O)[C@@H](O)[C@@H]1O [Dp3G, Delphinidin 3-O-glucoside]
Query string: // compare measured Km between P and Q ; output the lower one Kindly give the label for the entry you pick.
Result string: P
(P: 1.76 µM, Q: 4.11 µM)

###

- System: PsAOMT
- Construct: gene AOMT; dimer in solution; Leu-87; differs from PtAOMT at positions 13 (E), 85 (A), 87 (L), 205 (R)
- protocol_notes: HPLC of methylated product
- Type: biochemical, Paeonia suffruticosa
- test_context: 200 μM SAM, 1.0 mM MgCl2, 14 mM β-mercaptoethanol, 100 mM Tris/HCl pH 7.5, 35 °C; MBP fusion; read-out: PsAOMT / K m
endpoint: Km (µM)

compound | value_observed
O=c1cc(-c2ccc(O)c(O)c2)oc2cc(O[C@@H]3O[C@H](CO)[C@@H](O)[C@H](O)[C@H]3O)cc(O)c12 [Lu7G, Luteolin 7-O-glucoside] | 146
O=c1c(O)c(-c2ccc(O)c(O)c2)oc2cc(O)cc(O)c12 [Quercetin] | 4.33

I. OC[C@H]1O[C@@H](Oc2cc3c(O[C@@H]4O[C@H](CO)[C@@H](O)[C@H](O)[C@H]4O)cc(O)cc3[o+]c2-c2ccc(O)c(O)c2)[C@H](O)[C@@H](O)[C@@H]1O [Cy3G5G, Cyanidin 3,5-di-O-glucoside]
II. C[C@@H]1O[C@@H](OC[C@H]2O[C@@H](Oc3c(-c4ccc(O)c(O)c4)oc4cc(O)cc(O)c4c3=O)[C@H](O)[C@@H](O)[C@@H]2O)[C@H](O)[C@H](O)[C@H]1O [Qu3R, Quercetin 3-O-rutinoside]
Query string: Hi team, can someone confirm which has the larger Km: I or II ? Thanks. Kindly give the label for the entry you pick.
Result string: II
